# Tested on: KM12 colon
# assay: NCI-60 one-dose screen, 48 h (100 = growth as untreated, 0 = no growth, -100 = all killed)
# measurement-conditions: 10 µM unless noted
About 83,000 compounds went through this panel and 20% of them were active in at least one assay; those are over-represented in the sample as a whole.
compounds and their reported growth
Provide only the numeric value, understood in %.

[[record]]
compound = "NC(=O)c1c(NC(=O)c2ccc(C(F)(F)F)cc2Cl)sc2c1CCC(=O)C2"
property_label = "growth"
units_label = "%"
value_observed = -56.7

[[record]]
compound = "CCN(CC)CCOc1ccc(/C(=C(\\C)c2ccc(OC)c(F)c2)c2ccc(Cl)cc2)cc1"
property_label = "growth"
units_label = "%"
value_observed = 19.1

[[record]]
compound = "CS(=O)(=O)c1ccc(-c2[nH]c3ccc(F)cc3c2/C=N/NC(N)=S)cc1"
property_label = "growth"
units_label = "%"
value_observed = 18.5

[[record]]
compound = "COc1cc2oc3cc(C)oc(=O)c3c2cc1OC"
property_label = "growth"
units_label = "%"
value_observed = 105


## Task Fill in: growth of O=C(O)c1ccc(CO)o1 is ___
## Result 106

## Task Query: growth; subject: Cc1nc(C)c(-c2nn3c(-c4cccc(F)c4)nnc3s2)s1
## Result 99

## Task Please give the measured growth for this compound: CC(=O)OCCc1ccccc1
## Result 150

## Task Fill blank: measured growth of the compound O=C(Nc1ccccc1Cl)OCCN1CCOCC1 is ____.
## Result 102

## Task I am curious: what growth value has been reported for O[C@H]1CO[C@H]2[C@@H]1OC[C@@H]2Oc1ccc(Nc2nc(Nc3ccc(F)c(Cl)c3)ncc2F)cc1Cl ?
## Result 108

## Task Endpoint output: growth of O=C1NC(=S)S/C1=C\N1N=C(c2ccc(Cl)cc2)CC1c1ccc(F)cc1 (centres undefined) . Value?
## Result 87.4
